FYI, the data here is from patent EP1230261B1.

- TEST TARGET: HLA-A*0201 molecules on T2 cells (CEMX721.174.T2) (human)
- ASSAY EXPLANATION: cell-based or functional assay
RECORDED ENDPOINT: Relative competitor activity to SEQ ID NO:2

SLLMWITQL [NY-ESO-1 157-C165L peptide SLLMWITQL (SEQ ID NO:7)] :: 130 relative to SEQ ID NO:2
SLLMWITAA [peptide SLLMWITAA (SEQ ID NO:27)] :: 1500 relative to SEQ ID NO:2
QLSLLMWIT [NY-ESO-1 155-163 peptide QLSLLMWIT (SEQ ID NO:3)] :: 9 relative to SEQ ID NO:2
SLLMWATQA [peptide SLLMWATQA (SEQ ID NO:25)] :: 27 relative to SEQ ID NO:2
SLLMWITQCFL [NY-ESO-1 157-167 peptide SLLMWITQCFL (SEQ ID NO:1)] :: 13 relative to SEQ ID NO:2
SLLMWITQS [peptide SLLMWITQS (SEQ ID NO:19)] :: 13 relative to SEQ ID NO:2
SLLMWIAQA [peptide SLLMWIAQA (SEQ ID NO:26)] :: 1350 relative to SEQ ID NO:2
SLLMAITQA [peptide SLLMAITQA (SEQ ID NO:24)] :: 68 relative to SEQ ID NO:2
